From: PubChem BioAssay

# testMethodNotes: basal HepG2 mitochondrial membrane potential changes, profiling panel, cell-based, JC-1 fluorescence, 24 h, 100 nL compound (AID 1167); further: test concentration not given here
# conditionNotes: higher = more signal
// bucketize z-score: category 1 = under -1, category 2 = from -1 up to 0.5, category 3 = 0.5 and over

# compound, classification
data = [
    ("O=C1C=C(c2ccccc2)C(=O)c2ccc([C@H]3Oc4ccccc4S(=O)(=O)N4CCC[C@@H]34)cc21", "category 1"),
    ("COCCOC(=O)N1C(=O)[C@@]2(c3cc(C#CC4=CCCCC4)ccc31)[C@H](C(N)=O)[C@H]1C(=O)O[C@H](c3ccccc3)[C@H](c3ccccc3)N1[C@@H]2c1ccccc1OCCO", "category 1"),
    ("CCC(CC)C(O)C1C=CC2C(=O)N(c3ccccc3)C(=O)C2N1Nc1ccc(C(C)C)cc1 (stereo not given)", "category 1"),
]

Input O=C1N(Cc2ccccc2)c2ccccc2[C@@H]2OC(c3ccc(OCCCO)cc3)=N[C@]12Cc1ccccc1 ; output its category
category 1

Input COc1ccc(CN(C2=CC[C@@]3(C(N)=O)C(=O)C(Cl)=C(Cl)C(=O)[C@@]3(C#N)C2)S(=O)(=O)c2ccc(Br)cc2)cc1 ; output its category
category 1
